# TARGET_OR_SYSTEM: PD-L1 (Homo sapiens (Human))
# Sequence (Q9NZQ7 19-290): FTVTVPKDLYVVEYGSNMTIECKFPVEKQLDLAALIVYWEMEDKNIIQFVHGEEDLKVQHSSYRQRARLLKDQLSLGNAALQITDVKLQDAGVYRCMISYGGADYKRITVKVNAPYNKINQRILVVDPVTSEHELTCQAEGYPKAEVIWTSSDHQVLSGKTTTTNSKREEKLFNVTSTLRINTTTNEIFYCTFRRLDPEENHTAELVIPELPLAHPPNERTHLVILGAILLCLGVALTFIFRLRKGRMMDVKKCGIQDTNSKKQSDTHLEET
# ASSAY_OVERVIEW: Indirect whole blood PD-L1 internalization assay
# Format: cell-based
# CONDITION: interferon γ, 18 hours, CD14+ gated

MOLECULE	IC50
Cc1c(-c2nc3cc(CN4CC[C@@H](C(=O)O)C4)cc(C#N)c3o2)cccc1-c1cccc(-c2nc3c(s2)CNCC3)c1C	0.1 to 1 µM
Cc1c(Nc2nccc3cc(CN4CC[C@@H](O)C4)cnc23)cccc1-c1cccc(Nc2nccc3cc(CN4CC[C@@H](C(=O)O)C4)cnc23)c1C	0.1 to 1 µM
Cc1c(Nc2nccc3cc(CN4CC[C@@H](O)C4)cnc23)cccc1-c1cccc(-c2nc3cc(CC4CC[C@@H](C(=O)O)C4)cc(C#N)c3o2)c1C (stereo partly shown)	< 0.1 µM
Cc1c(Nc2nccc3cc(CN4CC[C@@H](O)C4)cnc23)cccc1-c1cccc(-c2nc3c(Cl)cc(CN4CC[C@@H](C(=O)O)C4)cn3n2)c1C	0.1 to 1 µM
Cc1c(Nc2nccc3cc(CN4CC[C@@H](O)C4)cnc23)cccc1-c1cccc(-c2nc3cc(CN4CC[C@@H](C(=O)O)C4)cc(C#N)c3o2)c1C	0.1 to 1 µM
Cc1c(NC(=O)c2nc3c(n2C)CCN(C[C@H](C)O)C3)cccc1-c1cccc(NC(=O)c2nc3c(n2C)CCN(C)C3)c1Cl	< 0.1 µM
Cc1c(-c2nc3cc(CN4CC[C@H](C(=O)O)C4)cc(C#N)c3o2)cccc1-c1cccc(NC(=O)c2nc3c(n2C)CCN(C)C3)c1Cl	< 0.1 µM
Cc1c(Nc2nccc3cc(CN4CC[C@@H](O)C4)cnc23)cccc1-c1cccc(-c2nc3cc(CN4CC(C(=O)O)C4)cc(C#N)c3o2)c1C	0.1 to 1 µM
Cc1c(Nc2nccc3cc(CN4CC[C@@H](O)C4)cnc23)cccc1-c1cccc(-c2nc3cc(CN4CC(C(=O)O)C4)cc(Cl)c3o2)c1C	0.1 to 1 µM
Cc1c(-c2nc3c(Cl)cc(CN4CC[C@@H](O)C4)cn3n2)cccc1-c1cccc(-c2nc3cc(CN4CC[C@@H](C(=O)O)C4)cc(C#N)c3o2)c1C	1 to 5 µM
Cc1c(NC(=O)c2nc3c(n2C)CCN(C2CCOCC2)C3)cccc1-c1cccc(NC(=O)c2nc3c(n2C)CCN(C)C3)c1Cl	< 0.1 µM
Cc1c(NC(=O)c2ccc(CNCCO)cn2)cccc1-c1cccc(NC(=O)c2ccc(CNCCO)cn2)c1Cl	< 0.1 µM
Cc1c(-c2nc3cc(CN4CC[C@@](C)(C(=O)O)C4)cc(C#N)c3o2)cccc1-c1cccc(Nc2nccc3cc(CN4CC[C@H](O)C4)cnc23)c1Cl	0.1 to 1 µM
